System: Bacteroides thetaiotaomicron
assay: growth AUC relative to DMSO control (median of replicates) (fraction); higher = more growth (less inhibition), active = hit call of the paper
conditionSet: 20 µM; 24 h
Lab note: compare growth AUC against 1. Equal or greater, write Satisfied. Smaller, write Not satisfied.

{"molecule": "CN(C)C(=O)Nc1ccc(Oc2ccc(Cl)cc2)cc1", "assignedLabel": "Not satisfied"}

Does growth AUC meet or surpass 1 for "COCCCNc1nc(NC(C)C)nc(SC)n1" ?
Not satisfied

Given COCC(=O)N(c1c(C)cccc1C)C(C)C(=O)O (configuration not stated) , state whether its growth AUC is at least 1.
Satisfied

* * *

A collection of compounds and their measured growth AUC
Tested on: Coprococcus comes
assay: growth AUC relative to DMSO control (median of replicates) (fraction); higher = more growth (less inhibition), active = hit call of the paper
conditionSet: 20 µM; 24 h

{"compound": "COc1cc(Cl)ccc1Oc1ccc(Cl)cc1Cl", "growth AUC": "0.938 (inactive)"}
{"compound": "COC(=O)C(C)Oc1ccc(Oc2ncc(C(F)(F)F)cc2Cl)cc1 (centres undefined)", "growth AUC": "1.02 (inactive)"}
{"compound": "CCOC(=O)/C(Cl)=C/c1cc(N2C(=O)C3=C(CCCC3)C2=O)ccc1Cl", "growth AUC": "0.97 (inactive)"}

Which growth AUC value is on record for "CN(C)C(=O)Nc1cc(C(C)(C)C)on1" ?
0.99 (inactive)

* * *

Tested on: Bifidobacterium longum subsp. longum
assay: growth AUC relative to DMSO control (median of replicates) (fraction); higher = more growth (less inhibition), active = hit call of the paper;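 active = AUC reduced over 20% with Padj below 0.05 in at least 2 of 3 replicates; inactive = otherwise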
conditionSet: 20 µM; 24 h
Parameter call: string, one of 1 = active, 0 = inactive

Consider the following illustrative entries.
{"compound": "Cc1ccc(C)c(O)c1", "assignedLabel": 0}
{"compound": "CN(C)C(=O)Nc1ccc(Cl)c(Cl)c1", "assignedLabel": 0}
{"compound": "CC(C)(C)C(O)/C(=C\\c1ccc(Cl)cc1)n1cncn1 (stereo unspecified)", "assignedLabel": 0}
{"compound": "COC(=O)c1ccc(CNS(C)(=O)=O)cc1S(=O)(=O)NC(=O)Nc1nc(OC)cc(OC)n1", "assignedLabel": 0}
{"compound": "CC1COc2ccccc2N1C(=O)C(Cl)Cl (stereo unspecified)", "assignedLabel": 0}

Hi, do you know how "Cl.NCCO/C=C/[C@H](N)C(=O)O" came out in this test?
0

Fill in: this test's call for "CC(C)(c1cc(Br)c(O)c(Br)c1)c1cc(Br)c(O)c(Br)c1" is ___
1

Lab log entry: "C[C@@]1(c2ccccc2)NC(=O)N(Nc2ccccc2)C1=O" — outcome as called in the assay?
0

* * *

Tested on: Roseburia intestinalis
assay: growth AUC relative to DMSO control (median of replicates) (fraction); higher = more growth (less inhibition), active = hit call of the paper
conditionSet: 20 µM; 24 h
# Lookup of reported growth AUC keyed by entry

{"molecule": "CCC([O-])=C1C(=O)CC(C(=O)[O-])CC1=O.[Ca+2] (centres undefined)", "growth AUC": "1.12 (inactive)"}
{"molecule": "CCS(=O)(=O)c1nnc(N(C)C(=O)NC)s1", "growth AUC": "1 (inactive)"}
{"molecule": "COC(=O)c1ccc(CNS(C)(=O)=O)cc1S(=O)(=O)NC(=O)Nc1nc(OC)cc(OC)n1", "growth AUC": "0.973 (inactive)"}
{"molecule": "CCCCOC(=O)COc1ccc(Cl)cc1Cl", "growth AUC": "1.04 (inactive)"}
{"molecule": "CCc1cccc(CC)c1N(COC)C(=O)CS(=O)(=O)[O-].[Na+]", "growth AUC": "1.03 (inactive)"}
{"molecule": "c1ccc(CNc2ncnc3nc[nH]c23)cc1", "growth AUC": "0.962 (inactive)"}

Quick one: growth AUC of "CCN(CC)c1nc(C)cc(=O)[nH]1" ?
1.01 (inactive)

Reported growth AUC for "C[C@@]1(c2ccccc2)NC(=O)N(Nc2ccccc2)C1=O" : what is it?
0.958 (inactive)

Recorded growth AUC of "CCNc1nc(NCC)nc(OC)n1" , please.
0.993 (inactive)

Need growth AUC, item CC(C)(NC(=O)C(Br)C(C)(C)C)c1ccccc1 (centres undefined)
0.964 (inactive)

Fill in: growth AUC of "CCCCOCCOC(=O)COc1ccc(Cl)cc1Cl" is ___
0.941 (inactive)

// growth AUC lookup, key: CC(C)(C)C(O)/C(=C\c1ccc(Cl)cc1)n1cncn1 (centres undefined)
0.973 (inactive)

Consider the molecule shown here: "O=C(NC(=O)c1c(F)cccc1F)Nc1cc(C(F)(F)F)cc(C(F)(F)F)c1Cl" What is its recorded growth AUC?
0.942 (inactive)

Item CCCCCC(C)OC(=O)COc1ccc(Cl)c2cccnc12 (centres undefined) has what recorded growth AUC?
0.931 (inactive)

Can you look up the measured growth AUC of Cc1cc(CC(C)CC(C)(C)C)n(O)c(=O)c1.NCCO (centres undefined) for me?
0.995 (inactive)

* * *

Item-by-item account of growth AUC
System: Parabacteroides distasonis
assay: growth AUC relative to DMSO control (median of replicates) (fraction); higher = more growth (less inhibition), active = hit call of the paper
conditionSet: 20 µM; 24 h
Please respond with just the number, no unit label.

Use the examples below as a reference point.
{"molecule": "FC(F)(F)C(=NOCC1OCCO1)c1ccc(Cl)cc1", "growth AUC": 1}
{"molecule": "Cc1cc(C)cc(O)c1", "growth AUC": 1.01}

Bench note: what growth AUC did "Oc1ccccc1O" show?
1.02

* * *

Below is a list of entries, each paired with its recorded growth AUC value.
Test system: Parabacteroides distasonis
assay: growth AUC relative to DMSO control (median of replicates) (fraction); higher = more growth (less inhibition), active = hit call of the paper
conditionSet: 20 µM; 24 h
Write the value as a bare number.

Use these answered entries as a reference point.
{"compound": "CCSC(=O)N(CC)CC", "systemTested": "Parabacteroides distasonis", "measureName": "growth AUC", "val": 1.01}
{"compound": "CCCCCCC(C)OC(=O)C(C)Oc1ccc(Cl)cc1C (stereo not given)", "systemTested": "Parabacteroides distasonis", "measureName": "growth AUC", "val": 1.01}
{"compound": "COC(=O)c1c(Cl)c(Cl)c(C(=O)OC)c(Cl)c1Cl", "systemTested": "Parabacteroides distasonis", "measureName": "growth AUC", "val": 0.979}

// query growth AUC value for entry "c1ccc2[nH]c(-c3cscn3)nc2c1"
0.974

I have this compound here, "COc1cc(Cl)ccc1Oc1ccc(Cl)cc1Cl" , and I need its recorded growth AUC.
0.988

growth AUC lookup needed for "C#CCOC(=O)[C@@H](C)Oc1ccc(Oc2ncc(Cl)cc2F)cc1" , thanks.
1

Entry "COc1nc(C)nc(NC(=O)NS(=O)(=O)c2ccccc2OCCCl)n1" : reported growth AUC = ?
0.98

Entry under review: "CCOC(=O)/C(Cl)=C/c1cc(N2C(=O)C3=C(CCCC3)C2=O)ccc1Cl" . Reported growth AUC?
0.971

* * *

System: Bacteroides thetaiotaomicron
assay: growth AUC relative to DMSO control (median of replicates) (fraction); higher = more growth (less inhibition), active = hit call of the paper
conditionSet: 20 µM; 24 h
In this section, each of the molecules is paired with its reported growth AUC.

Answered cases to consult:
{"molecule": "CCOC(=O)Cc1[nH]nc2ccc(Cl)cc12", "growth AUC": "1.01 (inactive)"}
{"molecule": "CCc1ccc(C(c2ccc(CC)cc2)C(Cl)Cl)cc1", "growth AUC": "0.977 (inactive)"}

I would be grateful if you could share the reported growth AUC for Cc1ccc2c(c1)[C@H](Nc1nc(N)nc(C(C)F)n1)[C@@H](C)C2 (stereo not given in full) .
0.975 (inactive)

What does the data say about its growth AUC? Entry: "COC(=O)c1c(Cl)ccc(Cl)c1OC"
1.02 (inactive)

Could you share which growth AUC value was measured for "O=S(=O)(Oc1ccc(Cl)cc1Cl)c1ccccc1" ?
1.01 (inactive)

* * *

Tested on: Fusobacterium nucleatum subsp. animalis
assay: growth AUC relative to DMSO control (median of replicates) (fraction); higher = more growth (less inhibition), active = hit call of the paper
conditionSet: 20 µM; 24 h
List of growth AUC values.
Could you respond with only the numeric value?

These recorded examples may help you get a feel for the data.
{"molecule": "CCCCOCCOCCOCc1cc2c(cc1CCC)OCO2", "growth AUC": 0.992}
{"molecule": "Cc1ccc(C)c(O)c1", "growth AUC": 0.988}

I have this molecule here, Cc1cccc(C)c1N(CCSCC(O)C(=O)[O-])C(=O)CO.[Na+] (stereo unspecified) , and I need its recorded growth AUC.
0.984

So what does the record say about growth AUC for CC(C)(C)C(=O)C(Oc1ccc(Cl)cc1)n1ccnc1 (stereo unspecified) ?
1.02

GET /values?readout=growth AUC&item= "CC(C)COC(=O)COc1cc(Cl)c(Cl)cc1Cl"
1.01
